Tested on: SF-539 CNS
ASSAY_SUMMARY: NCI-60 one-dose screen, 48 h (100 = growth as untreated, 0 = no growth, -100 = all killed)
MEASUREMENT_CONDITIONS: 10 µM unless noted
About 83,000 compounds went through this panel and 20% of them were active in at least one assay; those are over-represented in the sample as a whole.
QUANTITY_MEASURED: growth (%)
Answers are plain numbers, in %.

Solved cases (2 shown):
Cc1cc2nc(C(Cl)Cl)nc(-c3cccs3)n2n1 = 17.5
COCCNc1ccc2ncc(C#Cc3cncc(C(=O)Nc4ccc(CN5CCN(C)CC5)c(C(F)(F)F)c4)c3)n2n1 = -77

Give one value of growth per listed compound.
1. COC(=O)C1(C)CCC[C@]2(C)[C@H]3C[C@H]4C(C(C)C)=C[C@]3(CC[C@@H]12)[C@H]1[C@@H]4[C@@H](OC(=O)c2ccco2)CC[C@@H]1OC(=O)c1ccco1 (some centres not stated)
2. COc1ccc(CCN2C(=O)CSC2=S)cc1
3. O=C(Cn1cc[n+](CC(=O)c2ccc(-c3ccccc3)cc2)c1)Nc1cccc2cccnc12
4. CS(=O)(=O)c1ncc(-c2ccccc2)cn1

Output:
1: 103; 2: 84.7; 3: 79.1; 4: 94.4

Give one value of growth per listed compound.
1. O=C(CCn1c[n+](CC(=O)c2ccc(F)cc2)c2ccccc21)Nc1cccc2cccnc12
2. CCCCCc1ccc(S(=O)(=O)Nc2cccc(-c3csc(NC(=O)CCCCCN4CCN(C)CC4)n3)c2)cc1
3. Cn1cc(-c2cc(N)n3nc(-c4cn(C)c5ccccc45)cc3n2)c2ccccc21
4. CCO/C=N/C1=C(C#N)C(c2ccc(F)cc2)c2sc3c(CC)cccc3c2O1 (configuration not stated)
5. COc1ccc2c(c1)c(CC(=O)[Se]CCC#N)c(C)n2C(=O)c1ccc(Cl)cc1
6. CCOC(=O)C1=NNC(c2ccc(Cl)cc2)C1C(=O)N1C(=S)NC(=O)C1CC(C)C (configuration not stated)
7. O=C1CCCC2=C1C(c1c[nH]c3ccc(Br)cc13)Cc1cc(Br)ccc1N2 (configuration not stated)

Output:
1. 89.6
2. 63
3. 84.1
4. -12.7
5. -63.9
6. 104
7. 28.6

Give one value of growth per listed compound.
1. COC(=O)C(Cc1ccccc1)Nc1nc(NC(Cc2ccccc2)C(=O)OC)nc(N2CCOCC2)n1 (configuration not stated)
2. CC(c1ccccc1)N1CSc2nc3ncncc3n2C1 (configuration not stated)

Output:
[98, 23.5]

Give one value of growth per listed compound.
1. N#Cc1cnc2ccc(-c3cnc4[nH]ncc4c3)cc2c1N1CCc2cc(F)c(Cl)cc21
2. COc1cccc2cc(-c3cc4ccccc4[nH]3)/c(=N\NC(=O)c3ccc(Cl)cc3)oc12
3. Oc1cccc2ccc(-c3nnc(SCc4ccc(O)c5ncccc45)o3)nc12

Output:
-27.1
33.1
14.5

Give one value of growth per listed compound.
1. CCc1nn2c(C)cc(C)nc2c1Cc1ccc(/C=C/CN2CCN(CCOCCOCCN3CCN(C/C=C/c4ccc(Cc5c(CC)nn6c(C)cc(C)nc56)cc4)CC3)CC2)cc1
2. COc1ccc2c(c1)c(CC(=O)[Se]CC(=O)O)c(C)n2C(=O)c1ccc(Cl)cc1
3. COc1ccc(C(=O)Nc2ncc(Cc3ccccc3Cl)s2)cc1
4. CCNC(=O)N1CCc2cc(OC)c(OCCc3ccc(OC)nc3)cc2C1c1ccc(OC)cc1C (configuration not stated)
5. NS(=O)(=O)c1ccc(Nc2cc(-c3ccccc3)nc(SCC(=O)c3ccccc3)n2)cc1

Output:
1. -83.7
2. 66.8
3. 2.11
4. 22.6
5. 101

Give one value of growth per listed compound.
1. CCOP(=O)(OCC)OC[C@]12CCC(C)(C)C=C1[C@H]1CC[C@@H]3[C@@]4(C)CC[C@H](OP(=O)(OCC)OCC)C(C)(C)[C@@H]4CC[C@@]3(C)[C@]1(C)CC2
2. CN1CCN(Cc2ccc(NC(=O)c3cncc(C#Cc4cnn5cccnc45)c3)cc2C(F)(F)F)CC1
3. CC1(C)CC[C@]2(CN)CC[C@]3(C)C(=CC[C@@H]4[C@@]5(C)CCCNC(C)(C)[C@@H]5CC[C@]43C)[C@H]2C1

Output:
1. -84.1
2. 14.8
3. 99.7

Input: Give its growth value. Item: CC1(C)[C@@H](O)CC[C@]2(C)[C@H]3CC[C@@H]4[C@H]5[C@H](C(=O)/C=C\c6ccccn6)CC[C@]5(O)CC[C@@]4(C)[C@]3(C)CC[C@@H]12
Output: 25.7

Source of measurements: PubChem BioAssay (NCI)
